test system: Staphylococcus aureus; assay: Antibacterial activity against methicillin-[…] Staphylococcus aureus ATCC 29213 by broth microdilution method; format: functional
Measured MIC of individual entries
Readout type: MIC (µg/mL)

Cpd smiles	Readout type	Unit name	Reported measurement
COC(=O)[C@@H]1NC(=O)[C@H]2NC(=O)[C@H](NC(=O)[C@@H]3NC(=O)[C@H]4NC(=O)[C@H](NC(=O)[C@H](n5cc(CO[C@H]6O[C@H](CO)[C@@H](O)[C@H](O)[C@@H]6O)nn5)c5ccc(O)c(c5)Oc5cc4cc(O)c5C)[C@H](O)c4ccc(cc4)Oc4cc3cc(c4O)Oc3ccc(cc3)[C@H]2O)c2ccc(O)c(c2)-c2c(O)cc(O)cc21	MIC	µg/mL	2
COC(=O)[C@@H]1NC(=O)[C@H]2NC(=O)[C@H](NC(=O)[C@@H]3NC(=O)[C@H]4NC(=O)[C@H](NC(=O)[C@H](n5cc(CO[C@@H]6O[C@@H](C)[C@H](OC(C)=O)[C@@H](OC(C)=O)[C@H]6OC(C)=O)nn5)c5ccc(O)c(c5)Oc5cc4cc(O)c5C)[C@H](O)c4ccc(cc4)Oc4cc3cc(c4O)Oc3ccc(cc3)[C@H]2O)c2ccc(O)c(c2)-c2c(O)cc(O)cc21	MIC	µg/mL	16
COC(=O)[C@@H]1NC(=O)[C@H]2NC(=O)[C@H](NC(=O)[C@@H]3NC(=O)[C@H]4NC(=O)[C@H](NC(=O)[C@H](n5cc(CO[C@H]6O[C@H](CO)[C@@H](O)[C@H](O)[C@H]6O)nn5)c5ccc(O)c(c5)Oc5cc4cc(O)c5C)[C@H](O)c4ccc(cc4)Oc4cc3cc(c4O)Oc3ccc(cc3)[C@H]2O)c2ccc(O)c(c2)-c2c(O)cc(O)cc21	MIC	µg/mL	2
COC(=O)[C@@H]1NC(=O)[C@H]2NC(=O)[C@H](NC(=O)[C@@H]3NC(=O)[C@H]4NC(=O)[C@H](NC(=O)[C@H](n5cc(CO[C@H]6O[C@H](COC(C)=O)[C@@H](OC(C)=O)[C@H](OC(C)=O)[C@@H]6OC(C)=O)nn5)c5ccc(O)c(c5)Oc5cc4cc(O)c5C)[C@H](O)c4ccc(cc4)Oc4cc3cc(c4O)Oc3ccc(cc3)[C@H]2O)c2ccc(O)c(c2)-c2c(O)cc(O)cc21	MIC	µg/mL	2
COC(=O)[C@@H]1NC(=O)[C@H]2NC(=O)[C@H](NC(=O)[C@@H]3NC(=O)[C@H]4NC(=O)[C@H](NC(=O)[C@H](n5cc(CO[C@H]6O[C@H](COC(C)=O)[C@@H](O[C@H]7O[C@H](COC(C)=O)[C@@H](OC(C)=O)[C@H](OC(C)=O)[C@H]7OC(C)=O)[C@H](OC(C)=O)[C@H]6OC(C)=O)nn5)c5ccc(O)c(c5)Oc5cc4cc(O)c5C)[C@H](O)c4ccc(cc4)Oc4cc3cc(c4O)Oc3ccc(cc3)[C@H]2O)c2ccc(O)c(c2)-c2c(O)cc(O)cc21	MIC	µg/mL	1
